Experiment: Octanol-water partition coefficient, log P of the compound by high-performance liquid chromatography
Format: physicochemical
Would you kindly list logP for each of these compounds?
One number for each entry.

Each compound below has a recorded value; state its logP.
1. COC12CC(O)=C(C(C)=O)C(=O)C1(C)c1c(OC(C)=O)c(C)c(O)c(C(C)=O)c1O2 (mixture of isomers)
2. C=C1c2c(O)c(C)c(O)c(C(C)=O)c2OC12C=C(C(=O)O)C(=O)C2 (stereo not given)
3. CC(=O)c1c(O)c(C)c(O)c2c1OC1=CC(=O)/C(=C(\C)N)C(=O)C12C (stereo not given)
4. CC(=O)c1c(O)c(C)c(O)c2c1OC1=Cc3c(c(C)nn3C)C(=O)C12C (stereo not given)
5. CC(=O)C1=C(O)CC2Oc3c(C(C)=O)c(O)c(C)c(O)c3C2(C)C1=O (stereo not given)

2.6
1.3
3.2
2.8
2.4

----------
Assay: Antitumor activity against mouse LCC cells allografted in mouse assessed as host median survival time at 50 mg/kg/day, ip administered as gum acacia suspension on days 1 to 9 relative to control
Assay type: functional, Lewis lung carcinoma
Conditions: route intraperitoneal
MEASURED_QUANTITY: T/C (%)
One number for each entry, in %.

Some entries whose results are on file:
Annotate the compound CC(=O)c1c(O)c(C)c(O)c2c1OC1=Cc3onc(C)c3C(=O)C12C (stereo not drawn) with its measured T/C.
111

Annotate the compound CC(=O)Oc1c(C)c(O)c(C(C)=O)c2c1C1(C)C(=O)C(C(C)=O)=C(O)C=C1O2 (stereo not drawn) with its measured T/C.
112

Annotate the compound COC12CC(O)=C(C(C)=O)C(=O)C1(C)c1c(O)c(C)c(O)c(C(C)=O)c1O2 (mixture of isomers) with its measured T/C.
106

Annotate the compound CC(=O)c1c(O)c(C)c(O)c2c1OC1=CC(=O)/C(=C(\C)N)C(=O)C12C (stereo not drawn) with its measured T/C.
111

Annotate the compound COC12CC(O)=C(C(C)=O)C(=O)C1(C)c1c(OC(C)=O)c(C)c(O)c(C(C)=O)c1O2 (mixture of isomers) with its measured T/C.
108

Each compound below has a recorded value; state its T/C.
1. CC(=O)Oc1c(C)c(OC(C)=O)c2c(c1C(C)=O)OC1CC(=O)C(C(C)=O)=C(O)C21C (mixture of isomers)
2. C=C1c2c(O)c(C)c(O)c(C(C)=O)c2OC12C=C(C(=O)O)C(=O)C2 (stereo not drawn)
3. CC(=O)C1=C(O)CC2Oc3c(C(C)=O)c(O)c(C)c(O)c3C2(C)C1=O (stereo not drawn)

1: 114; 2: 127; 3: 107

----------
Test: Octanol-water partition coefficient, log P of the compound by high-performance liquid chromatography
Format: physicochemical
Would you kindly list logP for each of these compounds?
One number for each entry.

Annotate the compound CC(=O)Oc1c(C)c(OC(C)=O)c2c(c1C(C)=O)OC1=CC(O)=C(C(C)=O)C(=O)C12C (configuration not stated) with its measured logP.
2.5

Each compound below has a recorded value; state its logP.
1. CC(=O)Oc1c(C)c(O)c(C(C)=O)c2c1C1(C)C(=O)C(C(C)=O)=C(O)C=C1O2 (configuration not stated)
2. CC(=O)c1c(O)c(C)c(O)c2c1OC1=Cc3c(c(C)nn3-c3ccccc3)C(=O)C12C (configuration not stated)
3. COC12CC(O)=C(C(C)=O)C(=O)C1(C)c1c(O)c(C)c(O)c(C(C)=O)c1O2 (mixture of isomers)
4. CC(=O)C1=C(O)C=C2Oc3c(C(C)=O)c(O)c(C)c(O)c3[C@]2(C)C1=O [(-)-USNIC ACID]
5. CC(=O)C1=C(O)C=C2Oc3c(C(C)=O)c(O[C@@H]4O[C@H](CO)[C@@H](O)[C@H](O)[C@H]4O)c(C)c(O)c3C2(C)C1=O (some centres not stated)

1. 2.7
2. 3.2
3. 2.3
4. 2.88
5. 0.56

Annotate the compound CC(=O)Oc1c(C)c(OC(C)=O)c2c(c1C(C)=O)OC1CC(=O)C(C(C)=O)=C(O)C21C (mixture of isomers) with its measured logP.
2.3

----------
Would you kindly list T/C for each of these compounds?
Experiment: Antitumor activity against mouse LCC cells allografted in mouse assessed as host median survival time at 12 mg/kg/day, ip administered as gum acacia suspension on days 1 to 9 relative to control
Assay type: functional, Lewis lung carcinoma
Conditions: route intraperitoneal
One number for each entry, in %.

Some entries whose results are on file:
Annotate the compound CC(=O)c1c(O)c(C)c(O)c2c1OC1=CC(=O)c3c(C)noc3C12C (centres undefined) with its measured T/C.
117

Annotate the compound CC(=O)c1c(O)c(C)c(O)c2c1OC1=Cc3c(c(C)nn3C)C(=O)C12C (centres undefined) with its measured T/C.
103

Annotate the compound CC(=O)Oc1c(C)c(OC(C)=O)c2c(c1C(C)=O)OC1=CC(O)=C(C(C)=O)C(=O)C12C (centres undefined) with its measured T/C.
117

Now consider a different compound.
Annotate the compound CC(=O)C1=C(O)CC2Oc3c(C(C)=O)c(O)c(C)c(O)c3C2(C)C1=O (centres undefined) with its measured T/C.
107

Just for reference, ChEMBL document CHEMBL3244360 is where these values come from.
